test: Test of compactability of different sugar alcohols (crushing strength vs compression force); type: physicochemical; settings: pure sugar alcohol compacts, single punch press, punch and die lubricated with magnesium stearate; FIG. 1
READOUT: compactability (slope of the correlation between compression force and crushing strength)

| STRUCTURE_NOTATION | RESULT |
| --- | --- |
| OC[C@@H](O)[C@@H](O)[C@H](O)[C@H](O)CO | very poor compactability |
| OC[C@@H](O)[C@@H](O[C@H]1O[C@H](CO)[C@@H](O)[C@H](O)[C@H]1O)[C@H](O)[C@@H](O)CO | very poor compactability |
| OC[C@@H](O)[C@H](O)[C@@H](O)CO | very poor compactability |

These measurements were taken from patent US9101565B2.
